The reported measurements were obtained from patent US20070142362A1.

subject_of_test: human cannabinoid CB2 receptor (Homo sapiens, UniProt P34972)
Construct: expressed in transfected cells; host or cells: CHO cells, stably transfected; membrane preparation
Sequence (P34972 whole entry): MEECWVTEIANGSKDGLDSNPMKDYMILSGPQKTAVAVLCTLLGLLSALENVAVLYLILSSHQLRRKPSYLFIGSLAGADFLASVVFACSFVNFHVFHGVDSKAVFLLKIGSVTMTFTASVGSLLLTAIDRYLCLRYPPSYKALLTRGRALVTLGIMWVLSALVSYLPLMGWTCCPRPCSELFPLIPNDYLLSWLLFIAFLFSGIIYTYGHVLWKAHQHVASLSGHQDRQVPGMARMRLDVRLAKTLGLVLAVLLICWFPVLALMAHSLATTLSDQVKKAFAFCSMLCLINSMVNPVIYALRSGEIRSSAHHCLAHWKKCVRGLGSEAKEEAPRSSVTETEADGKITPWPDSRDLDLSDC
test_summary: In vitro affinity for cannabinoid-CB2 receptors ([3H]CP-55,940 radioligand binding, CHO cell membranes)
assay_setup: mean of at least three independent experiments, read-out: Human CB2 receptor binding pK1 (converted)
// bucketize Ki: low: < 10 nM; intermediate: ≥ 10 nM and < 100 nM; high: ≥ 100 nM

compound	class_name
CCCCCC1=NN(C(=O)Nc2cccc3ccccc23)CC1c1ccccc1 (centres unmarked) [Compound 18]	intermediate
CCCCCC1=NN(C(=O)NC[C@@H]2CC[C@H]3C[C@@H]2C3(C)C)CC1c1ccccc1 (relative stereo) [Compound 1]	intermediate
CCCCCC1=NN(C(=O)N[C@H]2C[C@H]3CC[C@]2(C)C3(C)C)CC1c1ccccc1 (some centres unmarked) [Compound 97]	low
O=C(Nc1ccccc1)N1CC(c2ccc(Cl)cc2)C(Cc2ccc(Cl)cc2)=N1 (centres unmarked) [Compound 41]	high
CC1(C)[C@@H]2CC[C@@]1(C)[C@@H](NC(=O)N1CC(c3ccccc3)C(CC3CC3)=N1)C2 (some centres unmarked) [Compound 54]	intermediate
CCCCCC1=NN(C(=O)N[C@H]2C[C@H]3CC[C@]2(C)C3(C)C)CC1c1ccccc1 (some centres unmarked) [Compound 13]	low
CCCCC1=NN(C(=O)NC(C)(C)Cc2ccccc2)CC1c1cccc(F)c1 (centres unmarked) [Compound 39]	high
CCCCCC1=NN(S(=O)(=O)NC[C@@H]2CC[C@H]3C[C@@H]2C3(C)C)CC1c1ccccc1 (relative stereo) [Compound 130]	high
CCCCC1=NN(C(=O)NC(C)(C)Cc2ccccc2)CC1c1ccccc1F (centres unmarked) [Compound 40]	high
CCCCCC1=NN(C(=O)NCC23CC4CC(CC(C4)C2)C3)CC1c1ccccc1 (centres unmarked) [Compound 11]	low
CCCCCC1=NN(C(=O)NCC2CCCCC2)CC1c1ccccc1 (centres unmarked) [Compound 12]	intermediate
CCCCCC1=NN(C(=O)NC2CCCCCC2)CC1c1ccccc1 (centres unmarked) [Compound 109]	intermediate

====

subject_of_test: human cannabinoid CB1 receptor (Homo sapiens, UniProt P21554)
Construct: expressed in transfected cells; host or cells: CHO cells, stably transfected; membrane preparation
test_summary: In vitro affinity for cannabinoid-CB1 receptors ([3H]CP-55,940 radioligand binding, CHO cell membranes)
assay_setup: mean of at least three independent experiments, read-out: Human CB1 receptor binding pKi (converted)
quantity_measured: log10(Ki) (log10 of the value in µM)

molecule	subject_of_test	log10(Ki)
CCCCC1=NN(C(=O)NC[C@@H]2CC[C@H]3C[C@@H]2C3(C)C)CC1c1ccccc1 (relative stereo)	human cannabinoid CB1 receptor (Homo sapiens, UniProt P21554)	-1.40
CCCCC1=NN(C(=O)NC(C)(C)Cc2ccccc2)CC1c1ccccc1F (stereo not shown)	human cannabinoid CB1 receptor (Homo sapiens, UniProt P21554)	0.20
CCCCCC1=NN(C(=O)N[C@H]2C[C@H]3CC[C@]2(C)C3(C)C)CC1c1ccccc1 (stereo partly shown) [Compound 97]	human cannabinoid CB1 receptor (Homo sapiens, UniProt P21554)	-2.30
CCCCC1=NN(C(=O)NC(C)(C)Cc2ccccc2)CC1c1cccc(F)c1 (stereo not shown)	human cannabinoid CB1 receptor (Homo sapiens, UniProt P21554)	0.60
CCCCCC1=NN(S(=O)(=O)NC[C@@H]2CC[C@H]3C[C@@H]2C3(C)C)CC1c1ccccc1 (relative stereo)	human cannabinoid CB1 receptor (Homo sapiens, UniProt P21554)	-0.50
O=C(Nc1ccccc1)N1CC(c2ccc(Cl)cc2)C(Cc2ccc(Cl)cc2)=N1 (stereo not shown)	human cannabinoid CB1 receptor (Homo sapiens, UniProt P21554)	-0.50
CCCCCC1=NN(C(=O)NC[C@@H]2CC[C@H]3C[C@@H]2C3(C)C)CC1c1ccccc1 (relative stereo)	human cannabinoid CB1 receptor (Homo sapiens, UniProt P21554)	-2.40

====

subject_of_test: human CB1 receptor (Homo sapiens, UniProt P21554)
Construct: expressed in transfected cells; host or cells: CHO cells
Sequence (P21554 whole entry): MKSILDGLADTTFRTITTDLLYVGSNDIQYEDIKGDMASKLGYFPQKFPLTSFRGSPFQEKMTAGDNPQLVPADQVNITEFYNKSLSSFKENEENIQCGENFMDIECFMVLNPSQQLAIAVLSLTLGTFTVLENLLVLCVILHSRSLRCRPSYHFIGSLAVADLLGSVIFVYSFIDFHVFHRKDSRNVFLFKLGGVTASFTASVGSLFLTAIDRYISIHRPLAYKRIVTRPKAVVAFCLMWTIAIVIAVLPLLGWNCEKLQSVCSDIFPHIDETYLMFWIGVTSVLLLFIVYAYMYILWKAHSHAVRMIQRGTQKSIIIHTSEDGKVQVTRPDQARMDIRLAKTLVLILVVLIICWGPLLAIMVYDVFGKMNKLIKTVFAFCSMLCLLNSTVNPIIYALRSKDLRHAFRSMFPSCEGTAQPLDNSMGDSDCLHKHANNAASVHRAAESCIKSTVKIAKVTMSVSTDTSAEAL
test_summary: In vitro cannabinoid-CB1 receptor (ant)agonism: [3H]-arachidonic acid release in CHO cells
Type: cell-based
assay_setup: CHO cells with human CB1 receptor, read-out: Human CB1 Arachidonic acid release (CB1) pEC50 (converted)
Experimental: In Vitro Cannabinoid-CB1Receptor (Ant)Agonism In vitro CB1 receptor antagonism/agonism can be assessed with the human CB1 receptor cloned in Chinese hamster ovary (CHO) cells. CHO cells are grown in a Dulbecco's Modified Eagle's medium (DMEM) culture medium, supplemented with 10% heat-inactivated fetal calf serum. […]
Strictly below 600 nM in EC50: 1. Otherwise: 0.

compound	class_name
CCCCCC1=NN(C(=O)c2cccc3ccccc23)CC1c1ccccc1 (stereo not shown) [Compound 87]	1
CCCCCC1=NN(C(=O)NCC23CC4CC(CC(C4)C2)C3)CC1c1ccccc1 (stereo not shown) [Compound 11]	0
CCCCCC1=NN(C(=O)N[C@H]2C[C@H]3CC[C@]2(C)C3(C)C)CC1c1ccccc1 (stereo partly shown) [Compound 13]	1
CCCCCC1=NN(C(=O)N[C@H]2C[C@H]3CC[C@]2(C)C3(C)C)CC1c1ccccc1 (stereo partly shown) [Compound 97]	1
CC1(C)[C@@H]2CC[C@@]1(C)[C@@H](NC(=O)N1CC(c3ccccc3)C(CC3CC3)=N1)C2 (stereo partly shown) [Compound 54]	1
CCCCCC1=NN(C(=O)NC[C@@H]2CC[C@H]3C[C@@H]2C3(C)C)CC1c1ccccc1 (relative stereo) [Compound 1]	0
CCCCC1=NN(C(=O)NC[C@@H]2CC[C@H]3C[C@@H]2C3(C)C)CC1c1ccccc1 (relative stereo) [Compound 7]	0

====

subject_of_test: human cannabinoid CB1 receptor (Homo sapiens)
Construct: expressed in transfected cells; host or cells: CHO cells, stably transfected; membrane preparation
test_summary: In vitro affinity for cannabinoid-CB1 receptors ([3H]CP-55,940 radioligand binding, CHO cell membranes)
assay_setup: mean of at least three independent experiments, read-out: Human CB1 receptor binding pKi (converted)
Labelling: Ki reported below 8 nM becomes yes; at or above becomes no.

compound	class_name
CC1(C)[C@@H]2CC[C@@]1(C)[C@@H](NC(=O)N1CC(c3ccccc3)C(CC3CC3)=N1)C2 (stereo partly shown) [Compound 54]	no
CCCCCC1=NN(C(=O)Nc2cccc3ccccc23)CC1c1ccccc1 (stereo not shown) [Compound 18]	yes
CCCCCC1=NN(C(=O)NCC23CC4CC(CC(C4)C2)C3)CC1c1ccccc1 (stereo not shown) [Compound 11]	no
CCCCCC1=NN(C(=O)NCC2CCCCC2)CC1c1ccccc1 (stereo not shown) [Compound 12]	no
CCCCCC1=NN(C(=O)c2cccc3ccccc23)CC1c1ccccc1 (stereo not shown) [Compound 87]	no
CCCCCC1=NN(C(=O)NC2CCCCCC2)CC1c1ccccc1 (stereo not shown) [Compound 109]	yes
